assay: Stability in mouse plasma assessed as half life at 5 uM measured upto 120 mins by UPLC/MS analysis; assay type: ADME, cell-free
Measured Endpoint: half-life at 5 µM (min)

* CCCCCCCC(=O)OCOP1(=O)/C=C/[C@H]2O[C@@H](n3cnc4c(N)ncnc43)[C@H](F)[C@@H]2OP(=O)(OCOC(=O)CCCCCCC)OC[C@H]2O[C@@H](n3cnc4c(N)ncnc43)[C@H](F)[C@@H]2O1 (stereo in doubt; 15C) | 3
* CC(C)(C)C(=O)OCOP1(=O)/C=C/[C@H]2O[C@@H](n3cnc4c(N)ncnc43)[C@H](F)[C@@H]2OP(=O)(OCOC(=O)C(C)(C)C)OC[C@H]2O[C@@H](n3cnc4c(N)ncnc43)[C@H](F)[C@@H]2O1 (stereo in doubt; 11C) | 4
* CC1(C(=O)OCOP2(=O)/C=C/[C@H]3O[C@@H](n4cnc5c(N)ncnc54)[C@H](F)[C@@H]3OP(=O)(OCOC(=O)C3(C)CCCCC3)OC[C@H]3O[C@@H](n4cnc5c(N)ncnc54)[C@H](F)[C@@H]3O2)CCCCC1 (stereo in doubt; 14C) | 21
* CCC(C)(C)C(=O)OCOP1(=O)/C=C/[C@H]2O[C@@H](n3cnc4c(N)ncnc43)[C@H](F)[C@@H]2OP(=O)(OCOC(=O)C(C)(C)CC)OC[C@H]2O[C@@H](n3cnc4c(N)ncnc43)[C@H](F)[C@@H]2O1 (stereo in doubt; 13C) | 4

The reported measurements were obtained from ChEMBL document CHEMBL5625225.
